# Procedure summary: Quantitative High-Throughput drug screen in 47 multiple myeloma cell lines against the NCATS MIPE library collection: KMS26_JCRB cell viability assay (AID 1918975); note: nearly all actives have a fitted effect of over 45% in size
# Stated conditions: KMS26 myeloma cells viability, CellTiter-Glo ATP, 48 h; series mostly up to 45.8 µM
Inconclusive results are not listed. Activity calls are given as the source filed them. Calls come from the whole dose curve; as a rule, active = well fitted cell-killing curve with a large enough effect; inconclusive = small, poorly fitted or top-dose-only effect, or effect the other way; inactive = no such curve, though single readings can be large or run the other way.
Would you mind answering with one of these outcomes? YES (active), NO (inactive)

Illustrative cases are given below, each with its answer.
Compound	Qualitative label
C[C@]12CC[C@@H]3c4ccc(O)cc4C[C@@H](CCCCCCCCCS(=O)CCCC(F)(F)C(F)(F)F)[C@H]3[C@H]1CC[C@H]2O (some centres undefined)	NO
O=c1cc(CN2CCOCC2)occ1OCCCCCSc1ccnc2cc(C(F)(F)F)ccc12	YES
COc1cc(NC(=O)c2ccc(-c3ccc(Cl)cc3)o2)cc(OC)c1	NO
COc1ccc(Cc2ccc(NC(N)=O)cc2)cc1-c1cccc(Cl)c1	NO
CN(C)c1cc(NC(=O)CNC(C)(C)C)c(O)c2c1C[C@@H]1C[C@H]3[C@H](N(C)C)C(=O)C(C(N)=O)=C(O)[C@@]3(O)C(=O)C1=C2O	NO

Recorded call for "NS(=O)(=O)c1cccc2c1C(=O)c1cccc(O)c1C2=O" ?
YES

Name the outcome recorded for "CC(=O)N(C)C1(c2ccccc2)CCN(CCC[C@]2(c3ccc(Cl)c(Cl)c3)CCCN(C(=O)c3ccccc3)C2)CC1" in the assay.
YES

# lookup: test call for "Oc1ccc(C2CCN(c3ccnc4ccccc34)CC2)cc1O"
YES

Call for entry "CC#CCn1c(N2CCC[C@@H](N)C2)nc2c1c(=O)n(Cc1nc(C)c3ccccc3n1)c(=O)n2C" :
NO

* * *

# Procedure summary: Quantitative High-Throughput drug screen in 47 multiple myeloma cell lines against the NCATS MIPE library collection: JIM1_ECACC cell viability assay (AID 1918964)
# Stated conditions: JIM1 myeloma viability, CellTiter-Glo ATP luminescence, 48 h; series mostly up to 45.8 µM
Records with an inconclusive call do not appear. Activity calls are given as the source filed them. Calls come from the whole dose curve; as a rule, active = well fitted cell-killing curve with a large enough effect; inconclusive = small, poorly fitted or top-dose-only effect, or effect the other way; inactive = no such curve, though single readings can be large or run the other way.
Choose one outcome from this list and give only that: TRUE = active, FALSE = inactive

// known answers, use as guide
Molecule	Qualitative label
CC1(C)S[C@H]2[C@H](NC(=O)[C@@H](N)c3ccc(O)cc3)C(=O)N2[C@@H]1C(=O)O	TRUE
CC1(C)CCC[C@@]2(C)[C@@H]1CC[C@@]1(C)OC(=O)C[C@H]21	FALSE
O=c1c(-c2ccc(O)cc2)coc2cc(OC3O[C@H](CO)[C@H](O)[C@H](O)[C@H]3O)cc(O)c12 (some centres undefined)	FALSE

Dear all, I need the recorded test outcome for "OC[C@H]1O[C@@H](n2cnc3c2NC=NC[C@@H]3O)C[C@H]1O" , thank you.
FALSE

Short answer needed: outcome of this test for "CC(C)OC(=O)CCCC=CC[C@@H]1[C@H](C=C[C@@H](O)COc2cccc(C(F)(F)F)c2)[C@H](O)C[C@@H]1O" ?
FALSE

Call for entry "CC(C)C(=O)Oc1ccc(CO)cc1[C@H](CCN(C(C)C)C(C)C)c1ccccc1" :
FALSE

* * *

# Test system: NIH3T3
# Procedure summary: Cytotoxic Profiling of Annotated Libraries Using Quantitative High-Throughput Screening (AID 1296008); note: % is set by controls: 0 for no effect and ±100 for the full control effect; nearly all actives have a fitted effect of over 60% in size
# Stated conditions: Five cell lines viability, CellTiter-Glo ATP luminescence, 48-72 h; stronger effect = lower value
Results filed as inconclusive are left out.
Assay endpoint: max response (%)
Respond numerically; units are % and should not be typed.

Solved entries:
Molecule	System name	max response (%)
CC=CC(=O)N(CC)c1ccccc1C	NIH3T3	3.96
Oc1ccc(C2CCN(c3ccnc4ccccc34)CC2)cc1O	NIH3T3	-5.13
C[N+]1(C)[C@@H]2CC(OC(=O)[C@H](CO)c3ccccc3)C[C@H]1[C@H]1O[C@@H]12 (stereo not given in full)	NIH3T3	-3.27
NC(=O)[C@@H](CCC(F)(F)F)N(Cc1ccc(-c2ncon2)cc1F)S(=O)(=O)c1ccc(Cl)cc1	NIH3T3	-26.9
COc1cc(NC(=O)c2ccc(-c3ccc(Cl)cc3)o2)cc(OC)c1	NIH3T3	1.05
N#Cc1ccc(NC(=O)Nc2ccccc2Br)c2n[nH]nc12	NIH3T3	3.86

Lab request: please report max response under test system NIH3T3 for "CO[C@H]1C[C@@H]2CC[C@@H](C)[C@@](O)(O2)C(=O)C(=O)N2CCCC[C@@H]2C(=O)O[C@H]([C@H](C)C[C@@H]2CC[C@H](OP(C)(C)=O)[C@H](OC)C2)CC(=O)[C@H](C)C=C(C)[C@@H](O)[C@@H](OC)C(=O)[C@H](C)C[C@H](C)C=CC=CC=C1C"
4.15

Under NIH3T3: max response value of "Cc1cnc(C(=O)O)c[n+]1[O-]" ?
-3.95

Recall the recorded max response for "Clc1ccc(-c2nc3sccn3c2C=NOCc2ccc(Cl)c(Cl)c2)cc1" with NIH3T3 and state it.
-1.3

Find max response (NIH3T3) for the entry "CN(C)c1cc(NC(=O)CNC(C)(C)C)c(O)c2c1C[C@@H]1C[C@H]3[C@H](N(C)C)C(=O)C(C(N)=O)=C(O)[C@@]3(O)C(=O)C1=C2O"
-1.41

* * *

Below is a list of entries, each paired with its recorded max response value.
# System: HEK293
# Procedure summary: Cytotoxic Profiling of Annotated Libraries Using Quantitative High-Throughput Screening (AID 1296008); note: % is set by controls: 0 for no effect and ±100 for the full control effect; nearly all actives have a fitted effect of over 60% in size
# Stated conditions: Five cell lines viability, CellTiter-Glo ATP luminescence, 48-72 h; stronger effect = lower value
Inconclusive results are not listed.
Dear colleague, please return just the value in %, with no unit written.

Molecule	max response (%)
COc1ccc(-c2coc3cc(O)ccc3c2=O)cc1	-7.99
COc1cccc(-c2cc(=O)c3ccccc3o2)c1N	-10.3

Now turn to the next molecule.
State the recorded max response for this entry: CC(C(=O)O)c1ccc(-c2ccccc2)c(F)c1 (stereo not given)
1.61

* * *

# Procedure summary: qHTS profiling of the MIPE4 collection as inhibitors of Plasmodium falciparum (3D7) proliferation (AID 743344);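 note: scaled between DMSO vehicle wells and 0.29 µM artemisinin as full inhibition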
# Stated conditions: P. falciparum 3D7 in erythrocytes, SYBR Green DNA fluorescence, 72 h; at 28.5 µM (top of the series) unless noted
Assign True whenever parasite growth, % of DMSO control does not fall below 50%; assign False whenever it does.

CC1(C)O[C@H]2C[C@@H]3[C@H]4CCC5=CC(=O)C=C[C@]5(C)[C@@]4(F)[C@@H](O)C[C@]3(C)[C@]2(C(=O)CO)O1 False
CC(C)n1nc(-c2ccc3oc(N)nc3c2)c2c(N)ncnc21 False
Nc1ncnc2c1ncn2[C@@H]1O[C@@H](CO)[C@H](O)[C@H]1O True

Check this compound for parasite growth, % of DMSO control at or above 50%: "CC(C)(Cc1ccc2ccccc2c1)NC[C@@H](O)COc1cccc(Cl)c1C#N"
True

Form field: parasite growth, % of DMSO control at least 50%? Entry: "CC1(C)Cc2c(sc(NC(=S)NC(=O)c3ccccc3)c2C(=O)O)CO1"
True

Decide: parasite growth, % of DMSO control of "O=c1ccn([C@@H]2O[C@H](CO)[C@H](O)[C@H]2O)c(=O)[nH]1" >= 50%?
True

* * *

# Procedure summary: qHTS for identification of novel therapeutic agents for treatment of microphthalmiaassociated transcription factor (MiT) renal cell carcinoma (RCC) (AID 1963991);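 note: curves scaled with 100% = DMSO viability and 0% = empty wells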
# Stated conditions: TFE3-RCC UOK109 viability, CellTiter-Glo, 48 h; measured here: UOK109 Z-AUC; stronger effect = lower value
Results filed as inconclusive are left out.
// reported z-score for each item listed

The examples below pair each entry with its known result.
Molecule	Test value
CC(C)C(C)C=CC(C)C1CCC2C3=CC=C4CC(O)CCC4(C)C3CCC21C (centres undefined)	0.762
O=C(OCC#CCSc1nnc(-c2cccc3ccccc23)o1)c1cc2ccccc2s1	0.144
COc1ccc2c3c1OC1C[C@@H](O)C=C[C@@]31CCN(C)C2 (some centres undefined)	0.657
NC1CCC(Nc2nc(Nc3ccc(C(=O)N4CCCCC4)cc3)c3ncn(-c4cccc(F)c4)c3n2)CC1 (centres undefined)	0.32
Nc1ncnc2c1ncn2[C@@H]1O[C@@H](CO)[C@H](O)[C@H]1O	0.834
CC[C@H]1OC(=O)[C@H](C)[C@@H](O[C@H]2C[C@@](C)(OC)[C@@H](O)[C@H](C)O2)[C@H](C)[C@@H](O[C@@H]2O[C@H](C)C[C@H](N(C)C)[C@@H]2O)[C@](C)(O)C[C@@H](C)CN(C)[C@H](C)[C@@H](O)[C@]1(C)O	-4

Need z-score of "O=c1cc(-c2ccccc2)oc2cc(O)cc(O)c12" , thanks.
0.364

What value of z-score has been reported for the following molecule? "CCOc1ccc(Nc2nc(-c3c(C)nc4ccccn34)cs2)cc1"
-1.91

Request the reported z-score associated with "CCC(=O)O[C@]1(C(=O)CO)CC[C@H]2[C@@H]3CCC4=CC(=O)CC[C@]4(C)[C@@H]3CC[C@@]21C"
1.05
